Data origin, for the record: a melting point compilation (Tetko et al.; mined from patent text by program, amines drawn as free bases though some values may be those of a salt)

result.type: melting point

>  <compound>
Oc1ccc(-c2nc3cc(O)ccc3o2)c(Cl)c1

>  <result.type>
melting point

>  <obs.value>
253 to 255 °C

$$$$
>  <compound>
COc1ccccc1NC(=O)Nc1nc(Nc2ccccc2-c2ccccc2)nc(N2CCCC(C(=O)O)C2)n1 (stereo not given)

>  <result.type>
melting point

>  <obs.value>
245 to 247 °C

$$$$
>  <compound>
CC(C)(C)c1ccc(C2CC(=O)c3ccccc3O2)cc1 (stereo not given)

>  <result.type>
melting point

>  <obs.value>
103 to 104 °C

$$$$
>  <compound>
CCCN1C(=O)C2(CC(C)C)CC(c3ccc([N+](=O)[O-])cc3)(C2)C1=O

>  <result.type>
melting point

>  <obs.value>
87 to 88 °C

$$$$
>  <compound>
COC(=O)C(C)(C)OCc1nn(Cc2ccccc2)c2ccccc12

>  <result.type>
melting point

>  <obs.value>
66 to 67 °C

$$$$
>  <compound>
Cc1ccccc1-c1cc(-c2ccc(F)cc2)c(C=C(Br)Br)c(C(C)C)n1

>  <result.type>
melting point

>  <obs.value>
108 to 110 °C

$$$$
>  <compound>
CCCn1nc(C(C)C)c(C(=O)OCc2ccccc2C(=O)c2ccccc2)c1Cc1ccc(-c2ccccc2S(=O)(=O)NC(=O)OC(C)(C)C)c(F)c1

>  <result.type>
melting point

>  <obs.value>
57 to 61 °C

$$$$
>  <compound>
COc1cc(OC)c(C2CCN(C)CC2OC(C)=O)c(Oc2cccs2)c1C(C)=O (stereo not given)

>  <result.type>
melting point

>  <obs.value>
153 to 154 °C

$$$$
>  <compound>
COc1ccc2cc([C@H](C)C(=O)OCC(=O)N(C)CCO[N+](=O)[O-])ccc2c1

>  <result.type>
melting point

>  <obs.value>
80 to 81 °C

$$$$
>  <compound>
CCCC(=O)OC1(C(C)=O)C(C)CC2C3CCC4=CC(=O)C=CC4(C)C3(Cl)C(=O)CC21C (stereo not given)

>  <result.type>
melting point

>  <obs.value>
154 to 155 °C

$$$$
>  <compound>
CS(=O)(=O)c1ccc(-c2nn3c4c(oc3c2-c2ccc(F)cc2)CCCC4)cc1

>  <result.type>
melting point

>  <obs.value>
183 to 184 °C

$$$$
>  <compound>
CC(C)C[C@H](NC(=O)N1CCOCC1)C(=O)N[C@@H](CCc1ccccc1)C(=O)c1oc(-c2ccccc2)nc1-c1ccccc1

>  <result.type>
melting point

>  <obs.value>
83 to 85 °C

$$$$
>  <compound>
CCOC(=O)CSc1c(C(=O)OCC)[nH]c2cc(Cl)cc(Cl)c12

>  <result.type>
melting point

>  <obs.value>
152 to 153 °C

$$$$
>  <compound>
Cc1cc(S(=O)(=O)F)ccc1Br

>  <result.type>
melting point

>  <obs.value>
47 to 48 °C

$$$$
>  <compound>
NC(=O)c1cccc(O)c1F

>  <result.type>
melting point

>  <obs.value>
196 to 197 °C

$$$$
>  <compound>
O=C(O)C(=O)Nc1ccc2[nH]c(=O)oc2c1

>  <result.type>
melting point

>  <obs.value>
254 °C

$$$$
>  <compound>
CCOc1cc2ncc(C#N)c(NCc3ccc(F)c(F)c3)c2cc1OCC

>  <result.type>
melting point

>  <obs.value>
167 to 169 °C

$$$$
>  <compound>
O[C@@H](CNCCOc1ccc2oc(-c3ccon3)cc2c1)c1cccc(Cl)c1

>  <result.type>
melting point

>  <obs.value>
112 to 120 °C

$$$$
>  <compound>
O=S1(=O)NCN(C2CCCCCC2)c2ccc(Cl)cc21

>  <result.type>
melting point

>  <obs.value>
216 to 218 °C

$$$$
>  <compound>
Nc1nc2c(sc(=O)n2CC(O)CO)c(=O)[nH]1 (stereo not given)

>  <result.type>
melting point

>  <obs.value>
248 to 254 °C

$$$$
